Each recorded value in this set is attributed to patent US20090012178A1.

Molecular target: UniProtKB P31645
Experiment: 5-HT Transporter binding assay (SRI)
Settings: read-out: IC50 vs SRI
Known pIC50 of a selection of compounds
# pIC50 = -log10(concentration in molar units)

>>> observed("COc1cccc([C@H]2OCCN(C)Cc3cc(C#N)ccc32)c1")
6.92

Lab note: COc1cccc(C2OCCN(C)Cc3cc(C4CC4)ccc32)c1 (centres unmarked) gave pIC50 of 7.68

* * *

Listed next: entries and their corresponding IC50.
Target: NA Transporter (Homo sapiens)
Sequence (P23975 whole entry): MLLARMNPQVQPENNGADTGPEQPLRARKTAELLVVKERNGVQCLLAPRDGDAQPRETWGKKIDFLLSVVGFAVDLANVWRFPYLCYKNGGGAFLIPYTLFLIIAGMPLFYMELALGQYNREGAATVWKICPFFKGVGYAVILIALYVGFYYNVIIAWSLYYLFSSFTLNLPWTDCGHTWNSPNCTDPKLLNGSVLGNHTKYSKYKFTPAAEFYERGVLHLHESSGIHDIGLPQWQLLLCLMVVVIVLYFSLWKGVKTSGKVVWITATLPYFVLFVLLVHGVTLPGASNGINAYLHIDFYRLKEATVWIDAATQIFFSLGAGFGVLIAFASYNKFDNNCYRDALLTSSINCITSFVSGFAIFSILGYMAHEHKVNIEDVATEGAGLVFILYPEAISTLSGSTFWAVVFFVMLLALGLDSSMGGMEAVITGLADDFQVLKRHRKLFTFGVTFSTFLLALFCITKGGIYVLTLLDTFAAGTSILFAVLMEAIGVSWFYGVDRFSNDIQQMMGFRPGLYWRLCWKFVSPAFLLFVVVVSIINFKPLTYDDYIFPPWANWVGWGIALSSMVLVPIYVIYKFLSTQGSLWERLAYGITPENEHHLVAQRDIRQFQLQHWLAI
Experiment: NA Transporter binding assay (NRI)
Conditions: read-out: IC50 vs NRI
# output: bare number, implied unit nM

The compound listed as COc1cccc([C@H]2OCCN(C)Cc3cc(C#N)ccc32)c1 [Example 2] has a reported IC50 of 3800

So for COc1cccc(C2OCCN(C)Cc3cc(C#N)ccc32)c1 (single isomer, unassigned) [Example 1] , the logged IC50 turned out to be 400

* * *

Test: Mouse hotplate model of acute analgesia
Format: in vivo
Settings: 60 mg/kg po, 60 min before testing; * = statistical significance
Observed property: Paw Latency (Sec) above control

The recorded Paw Latency (Sec) above control for COc1cccc([C@H]2OCCN(C)Cc3cc(C#N)ccc32)c1 is 1 s

For COc1cccc(C2OCCN(C)Cc3cc(C4CC4)ccc32)c1 (stereo not shown) [Example 4] the compound record lists Paw Latency (Sec) above control as 5 s

Reported Paw Latency (Sec) above control of COc1cccc(C2OCCN(C)Cc3cc(C#N)ccc32)c1 (single isomer, unassigned) : 7* Sec

Query COc1cccc(C2OCCN(C)Cc3cc(C4CC4)ccc32)c1 (single isomer, unassigned) [Example 3] yields Paw Latency (Sec) above control of 9* Sec

* * *

Molecular target: 5-HT Transporter (Homo sapiens)
Sequence (P31645 whole entry): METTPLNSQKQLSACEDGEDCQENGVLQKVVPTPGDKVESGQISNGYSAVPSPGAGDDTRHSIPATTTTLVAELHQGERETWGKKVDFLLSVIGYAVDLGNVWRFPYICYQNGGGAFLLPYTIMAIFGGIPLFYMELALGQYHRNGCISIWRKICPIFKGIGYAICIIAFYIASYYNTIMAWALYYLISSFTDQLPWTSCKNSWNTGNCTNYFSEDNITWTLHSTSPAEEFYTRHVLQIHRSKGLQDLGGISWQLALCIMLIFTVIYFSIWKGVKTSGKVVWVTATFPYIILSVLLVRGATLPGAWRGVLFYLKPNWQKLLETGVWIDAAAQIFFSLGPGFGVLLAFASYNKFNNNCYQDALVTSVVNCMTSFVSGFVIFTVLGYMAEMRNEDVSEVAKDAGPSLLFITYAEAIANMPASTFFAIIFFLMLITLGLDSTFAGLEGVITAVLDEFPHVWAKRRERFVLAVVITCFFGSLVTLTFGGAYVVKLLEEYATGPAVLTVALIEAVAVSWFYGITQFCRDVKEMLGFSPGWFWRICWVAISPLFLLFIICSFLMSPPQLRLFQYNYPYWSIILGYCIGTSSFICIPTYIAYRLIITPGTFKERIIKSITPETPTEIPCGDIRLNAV
Assay: 5-HT Transporter binding assay (SRI)
Observed property: pIC50
Please keep in mind that pIC50 is minus log10 of the molar concentration; only the number is needed.

>>> observed("COc1cccc(C2OCCN(C)Cc3cc(C4CC4)ccc32)c1 (single isomer, unassigned) [Example 3]")
8.28

Next compound, please.
Short answer on 5-HT Transporter (Homo sapiens) for COc1cccc(C2OCCN(C)Cc3cc(C#N)ccc32)c1 (single isomer, unassigned) [Example 1] , pIC50: 8.05

* * *

// reported Paw Latency (Sec) above control per item
Assay: Mouse hotplate model of acute analgesia
Type: in vivo
Conditions: 30 mg/kg po, 60 min before testing; * = statistical significance
Could you give me the number in s? Just the number is fine.

Quick note, Paw Latency (Sec) above control for COc1cccc([C@H]2OCCN(C)Cc3cc(C#N)ccc32)c1 landed at 6

Entry under test: COc1cccc(C2OCCN(C)Cc3cc(C#N)ccc32)c1 (single isomer, unassigned) . Its Paw Latency (Sec) above control was 5

Short answer for COc1cccc(C2OCCN(C)Cc3cc(C4CC4)ccc32)c1 (stereo not shown) [Example 4] : Paw Latency (Sec) above control was 5

* * *

Molecular target: CYP 2D6 (Homo sapiens, UniProt P10635)
Sequence (P10635 whole entry): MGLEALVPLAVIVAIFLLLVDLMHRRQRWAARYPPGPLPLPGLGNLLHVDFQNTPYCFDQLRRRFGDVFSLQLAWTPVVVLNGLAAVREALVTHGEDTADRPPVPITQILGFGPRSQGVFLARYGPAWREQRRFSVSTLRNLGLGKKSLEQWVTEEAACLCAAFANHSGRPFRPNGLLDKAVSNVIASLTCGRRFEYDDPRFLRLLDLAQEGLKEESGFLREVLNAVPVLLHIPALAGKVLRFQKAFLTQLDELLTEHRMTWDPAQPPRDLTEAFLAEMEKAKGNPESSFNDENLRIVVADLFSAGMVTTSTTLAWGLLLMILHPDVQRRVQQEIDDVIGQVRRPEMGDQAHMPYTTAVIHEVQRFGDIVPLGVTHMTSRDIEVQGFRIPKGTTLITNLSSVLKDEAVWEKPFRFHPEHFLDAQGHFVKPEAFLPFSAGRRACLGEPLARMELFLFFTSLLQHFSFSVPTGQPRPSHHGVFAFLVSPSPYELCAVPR
Assay: CYP 2D6 inhibition, substrate based assay
Format: in vitro ADME
Settings: read-out: CYP 2D6 inhibition IC50
The following molecules are listed with their measured IC50 values.
Field note: include the unit after the figure.

>>> observed("COc1cccc(C2OCCN(C)Cc3cc(C4CC4)ccc32)c1 (centres unmarked) [Example 4]")
"10 µM"

Noted for COc1cccc(C2OCCN(C)Cc3cc(C4CC4)ccc32)c1 (single isomer, unassigned) [Example 3] : its IC50 reads 1.1 µM
